tested on: HepG2 cell line; assay: Cytotoxicity screening, CellTiter 96 assay; settings: tested up to 500 µM (2, 3), 250 µM (12, 17), 100 µM (6, 7, 11) because of solubility
Measure name: toxicity to HepG2 up to highest tested concentration

Worked set:
QUERY: Reported toxicity to HepG2 up to highest tested concentration, compound O=C(Nc1ccc2c(c1)B(O)OC2)c1ccc(C(F)(F)F)cn1 [Compound 11] : ____
RESULT: non-toxic

QUERY: Again, but for Nc1ncc(Cl)nc1C(=O)Nc1ccc2c(c1)B(O)OC2 [Compound 7]
RESULT: non-toxic

QUERY: Another: Nc1nccnc1C(=O)Nc1ccc2c(c1)B(O)OC2 [Compound 6]
RESULT: non-toxic

QUERY: Entry Cc1nccnc1C(=O)Nc1ccc2c(c1)B(O)OC2 [Compound 3] please
RESULT: non-toxic

QUERY: Now this one: O=C(Nc1ccc2c(c1)B(O)OC2)c1cnc2ccccc2n1 [Compound 17]
RESULT: non-toxic

QUERY: Item: O=C(Nc1ccc2c(c1)B(O)OC2)c1ccc(C(F)(F)F)nc1 [Compound 12]
RESULT: non-toxic

Next compound, toxicity to HepG2 up to highest tested concentration to be filled in.
QUERY: Requested read-out: toxicity to HepG2 up to highest tested concentration. Entry: Cc1cnc(C(=O)Nc2ccc3c(c2)B(O)OC3)cn1 [Compound 2]
RESULT: non-toxic
